Listing: pIC50 of selected compounds
Target: human SLC6A19 and TMEM27 (Homo sapiens)
Construct: expressed in transfected cells
Sequence (Q695T7 1-634): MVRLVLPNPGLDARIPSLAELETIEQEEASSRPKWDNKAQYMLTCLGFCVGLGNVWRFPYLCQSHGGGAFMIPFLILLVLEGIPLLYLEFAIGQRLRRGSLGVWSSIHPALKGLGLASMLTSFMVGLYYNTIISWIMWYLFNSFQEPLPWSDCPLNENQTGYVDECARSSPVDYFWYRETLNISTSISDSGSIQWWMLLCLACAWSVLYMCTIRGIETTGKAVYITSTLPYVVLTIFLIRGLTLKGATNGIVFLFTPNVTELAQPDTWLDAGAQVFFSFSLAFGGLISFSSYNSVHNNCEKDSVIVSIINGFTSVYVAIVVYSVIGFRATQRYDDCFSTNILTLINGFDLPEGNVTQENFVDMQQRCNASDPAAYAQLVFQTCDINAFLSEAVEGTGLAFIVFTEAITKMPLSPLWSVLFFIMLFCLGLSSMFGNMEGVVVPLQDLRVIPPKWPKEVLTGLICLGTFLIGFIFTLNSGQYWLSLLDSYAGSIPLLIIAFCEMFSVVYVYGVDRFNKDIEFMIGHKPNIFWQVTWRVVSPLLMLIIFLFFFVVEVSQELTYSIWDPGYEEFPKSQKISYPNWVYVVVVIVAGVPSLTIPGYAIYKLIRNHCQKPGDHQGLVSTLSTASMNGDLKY
Sequence (Q9HBJ8 15-222 partner): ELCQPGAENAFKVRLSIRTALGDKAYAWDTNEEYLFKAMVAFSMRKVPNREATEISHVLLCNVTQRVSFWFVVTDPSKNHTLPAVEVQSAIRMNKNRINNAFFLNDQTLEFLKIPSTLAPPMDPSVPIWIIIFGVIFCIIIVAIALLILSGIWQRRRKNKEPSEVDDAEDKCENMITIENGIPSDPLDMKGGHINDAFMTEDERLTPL
Test: Radiolabelled (3H) leucine uptake in CHO cells with doxycycline-inducible expression of human SLC6A19 and TMEM27 (Example B-1)
Assay type: cell-based
Conditions: CHO cells with doxycycline-inducible expression of human SLC6A19 and TMEM27, read-out: SLC6A19_Radioligand Uptake Assay IC50
pIC50: −log10 of the molar value.
ASSAY ENDPOINT: pIC50

>>> observed("CC1(C(=O)NCc2cc3cc(Cl)c(CCn4cccn4)cc3[nH]2)CC1")
6.84
>>> observed("O=C(NCc1cc2cc(Cl)c(OCc3cscn3)cc2[nH]1)C1CCO1 (stereo not drawn)")
7.18
>>> observed("Cc1cc(COc2cc3[nH]c(CNC(=O)[C@H](C)O)cc3cc2Cl)on1")
6.76
>>> observed("CC(O)C(=O)NCc1cc2cc(Cl)c(OCc3cscn3)cc2[nH]1 (stereo not drawn)")
6.47
>>> observed("CNCC(=O)NCc1cc2cc(Cl)c(OCc3cc(C)no3)cc2[nH]1")
5.68
>>> observed("CCC(=O)NCc1cc2cc(F)c(OCc3cscn3)cc2[nH]1")
7.01

====

Molecular target: human SLC6A19 and TMEM27 (Homo sapiens, UniProt Q695T7)
Construct: expressed in transfected cells
Sequence (Q695T7 1-634): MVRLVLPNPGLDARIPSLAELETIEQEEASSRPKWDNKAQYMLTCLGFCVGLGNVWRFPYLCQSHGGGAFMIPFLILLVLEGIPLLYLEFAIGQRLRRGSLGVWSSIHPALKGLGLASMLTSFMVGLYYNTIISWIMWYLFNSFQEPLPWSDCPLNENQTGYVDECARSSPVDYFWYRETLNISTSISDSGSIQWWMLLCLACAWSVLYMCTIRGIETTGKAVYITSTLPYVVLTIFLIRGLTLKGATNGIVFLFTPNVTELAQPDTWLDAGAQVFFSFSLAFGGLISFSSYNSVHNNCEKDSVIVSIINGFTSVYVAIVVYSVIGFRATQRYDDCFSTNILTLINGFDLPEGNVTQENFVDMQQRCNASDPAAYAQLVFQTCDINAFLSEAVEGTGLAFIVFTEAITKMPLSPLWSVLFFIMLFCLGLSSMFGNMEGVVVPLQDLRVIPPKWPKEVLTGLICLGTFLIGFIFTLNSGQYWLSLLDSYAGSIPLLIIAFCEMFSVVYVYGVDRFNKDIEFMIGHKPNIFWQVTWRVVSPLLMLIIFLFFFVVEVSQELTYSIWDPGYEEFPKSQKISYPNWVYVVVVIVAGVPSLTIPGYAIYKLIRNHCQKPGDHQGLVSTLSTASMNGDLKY
Sequence (Q9HBJ8 15-222 partner): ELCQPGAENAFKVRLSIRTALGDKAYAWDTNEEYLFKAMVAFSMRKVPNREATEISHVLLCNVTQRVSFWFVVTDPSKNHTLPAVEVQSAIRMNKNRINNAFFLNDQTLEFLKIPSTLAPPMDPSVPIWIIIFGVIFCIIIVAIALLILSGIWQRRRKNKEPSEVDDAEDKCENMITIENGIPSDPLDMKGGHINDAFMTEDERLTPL
Experiment: Radiolabelled (3H) leucine uptake in CHO cells with doxycycline-inducible expression of human SLC6A19 and TMEM27 (Example B-1)
Type: cell-based
Conditions: CHO cells with doxycycline-inducible expression of human SLC6A19 and TMEM27, read-out: SLC6A19_Radioligand Uptake Assay IC50
ASSAY ENDPOINT: log10(IC50) (log10 of the value in nM)

>>> observed("CC(=O)NCc1cc2cc(Cl)c(OCc3cnn(C)n3)cc2[nH]1")
2.46
>>> observed("Cc1cc2cc(CNC(=O)N3CCC3)[nH]c2cc1OCc1cscn1")
2.44
>>> observed("CC(C)(C)C(=O)NCc1cc2cc(Cl)c(OCc3cscn3)cc2[nH]1")
2.58
>>> observed("CC(=O)NCc1cc2cc(Cl)c(OCc3cocn3)cc2[nH]1")
2.34
>>> observed("N#CCC(=O)NCc1cc2cc(Cl)c(OCc3cscn3)cc2[nH]1")
2.58
>>> observed("O=C(NCc1cc2cc(F)c(OCc3cccc(F)n3)cc2[nH]1)C1CC1")
2.29
>>> observed("Cc1cc(COc2cc3[nH]c(CNC(=O)c4ccon4)cc3cc2Cl)on1")
1.98
>>> observed("CC1(C(=O)NCc2cc3c(F)cc(OCc4ccon4)cc3[nH]2)CC1")
1.92
>>> observed("O=C(NCc1cc2cc(F)c(OCc3cscn3)cc2[nH]1)C1CC1")
1.92
>>> observed("CC1(C(=O)NCc2cc3cc(Cl)c(CNc4cccnc4)cc3[nH]2)CC1")
3.00
>>> observed("Cc1cc(COc2cc3[nH]c(CNC(=O)C4CCO4)cc3cc2F)on1 (stereo not shown)")
2.67
>>> observed("O=C(NCc1cc2cc(F)c(CCc3cscn3)cc2[nH]1)N1CCC1")
2.16
>>> observed("O=C(NCc1cc2cc(Cl)c(OCc3ccon3)cc2[nH]1)C1(C(F)(F)F)CC1")
2.27
>>> observed("CCC(=O)NCc1cc2c(F)cc(OCc3cscn3)cc2[nH]1")
2.06
>>> observed("O=C(NCc1cc2cc(Cl)c(OCc3cccc(F)n3)cc2[nH]1)N1CCC1")
2.46
>>> observed("CC1(C(=O)NCc2cc3cc(Cl)c(OCCC4CC4)cc3[nH]2)CC1")
2.29
>>> observed("COc1ccc(COc2cc3[nH]c(CNC(=O)C4(C)CC4)cc3cc2Cl)nn1")
3.08
>>> observed("Cc1cc(COc2cc3[nH]c(CNC(=O)C4(F)CC4)cc3cc2Cl)on1")
2.21
>>> observed("O=C(NCc1cc2cc(Cl)c(OCc3cscn3)cc2[nH]1)C12CCC(CC1)C2")
3.08
>>> observed("CC1(C(=O)NCc2cc3ccc(OCc4ccc5ccoc5c4)cc3[nH]2)CC1")
3.40
>>> observed("CC1(C(=O)NCc2cc3cc(CC#N)c(OCc4ccon4)cc3[nH]2)CC1")
2.77
>>> observed("Cc1cc(COc2cc3[nH]c(CNC(=O)C(C)C#N)cc3cc2Cl)on1 (single isomer, unassigned) [Compound 447]")
2.32
>>> observed("Cc1cc(COc2cc3[nH]c(CNC(=O)C[C@@H](C)O)cc3cc2Cl)on1")
3.38
>>> observed("O=C(NCc1cc2cc(Cl)c(OCc3cscn3)cc2[nH]1)N1CC(O)C1")
3.09
>>> observed("O=C(NCc1cc2cc(F)c(CCc3ccon3)cc2[nH]1)N1CCCC1")
2.54

====

Target: human SLC6A19 and TMEM27 (Homo sapiens, UniProt Q695T7)
Construct: expressed in transfected cells
Assay: 13C6,15N-isoleucine uptake in CHO cells with doxycycline-inducible expression of human SLC6A19 and TMEM27, RapidFire mass spectrometry (Example B-2)
Assay type: cell-based
Settings: read-out: SLC6A19_RapidFire Uptake Assay IC50
pIC50: −log10 of the molar value.
Threshold check on pIC50: at or above 7 gives TRUE, strictly below gives FALSE.

>>> discrete_label("CC(=O)NCc1cc2cc(Cl)c(OCc3cnn(C)n3)cc2[nH]1")
"FALSE"
>>> discrete_label("CC(=O)NCc1cc2cc(C)c(OCc3ccon3)cc2[nH]1")
"FALSE"
>>> discrete_label("O=C(NCc1cc2cc(F)c(NCc3ccon3)cc2[nH]1)N1CCCC1")
"FALSE"
>>> discrete_label("CC1(C(=O)NCc2cc3ccc(OCc4ccncn4)cc3[nH]2)CC1")
"FALSE"
>>> discrete_label("Cc1nc(COc2ccc3cc(CNC(=O)C4(C)CC4)[nH]c3c2)cs1")
"FALSE"
>>> discrete_label("CC1(C(=O)NCc2cc3ccc(OCc4cccnc4)cc3[nH]2)CC1")
"FALSE"
>>> discrete_label("CC(=O)NCc1cc2cc(F)c(OCc3cnn(C)n3)cc2[nH]1")
"FALSE"
>>> discrete_label("O=C(NCc1cc2cc(Cl)c(OCc3ccon3)cc2[nH]1)C1CC1")
"TRUE"
>>> discrete_label("O=C(NCc1cc2ccc(OCc3ccon3)cc2[nH]1)N1CCCC1")
"FALSE"
>>> discrete_label("CC1(C(=O)NCc2cc3cc(F)c(OCc4cocn4)cc3[nH]2)CC1")
"FALSE"
>>> discrete_label("Cc1nnc(COc2ccc3cc(CNC(=O)C4(C)CC4)[nH]c3c2)o1")
"FALSE"
>>> discrete_label("CC1(C(=O)NCc2cc3cc(Cl)c(CCc4ccon4)cc3[nH]2)CC1")
"TRUE"
>>> discrete_label("Cc1cc(COc2ccc3cc(CNC(=O)C4(C)CC4)[nH]c3c2)no1")
"FALSE"
>>> discrete_label("CC(=O)NCc1cc2cc(Cl)c(OCc3cc(C)no3)cc2[nH]1")
"TRUE"
>>> discrete_label("CC1(C(=O)NCc2cc3cc(F)c(OCc4cccnc4F)cc3[nH]2)CC1")
"FALSE"
>>> discrete_label("CC1(C(=O)NCc2cc3cc(F)c(NCc4ccon4)cc3[nH]2)CC1")
"FALSE"
